Values were extracted from the nanobody polyreactivity screen of Harvey et al. (2022).

# Experiment: yeast display, Sf9 membrane polyspecificity reagent, FACS + sequencing; frameworks hold sequencing errors
Value type: polyreactivity (PSR sort gate)

In the examples that follow, each entry is paired with its recorded polyreactivity (PSR sort gate).
{"Record sequence": "QVQLVESGGGLVQAGGSLRLSCAASGRTFSGYAMGWYRQAPGKERELVAAISWRGGRTYYADSVKGRFTISRDNAKNTVYLQMNSLKPEDTAVYYCATTVGDAGRRYYYWGQGTQVTVSS", "polyreactivity (PSR sort gate)": "high polyreactivity"}
{"Record sequence": "QVQLVESGGGLVQAGGSLRLSCAASGFIFLYNAMGWDRQARGKERELVAAITSSGGTTYYADSVKGRFTISRDNAKNTVYLQINSLKPEDTAVYYCAARYTGRNGGSTTPEYDYWGQGTQVTVSS", "polyreactivity (PSR sort gate)": "low polyreactivity"}
{"Record sequence": "QVQLVESGGGLVQAGGSLRLSCAASGRIFVKYVIGWYRQAPGKERELVAAISSSGGRTYYADSVKGRFTISRDNAKNTVYLQMNSLKPEDTAVYYCAASFRRIYVSGLGGPFDYWGQGTQVNVSS", "polyreactivity (PSR sort gate)": "high polyreactivity"}
{"Record sequence": "QDQLVESGGGLVQSGGSLRLSCAASGFIFPHYAMGWYRPAPGKERELVAAISKSGDSTYYADSVKGRFSISRDNAKNTVYLQMNSLKPEDTAVYYCARRGRSLLWKYDYWRQGTQVTVSS", "polyreactivity (PSR sort gate)": "low polyreactivity"}
{"Record sequence": "QVQLVESGGGLVQAGGSLRLSCAASGGICRYYAMGWYRPAPGKERELVAAISRGGNTKYADSVKGRFTISRDNAKNTVYLQMNSLKPEDTAVYYCNAYTYNRYYWGQGTQVTVSS", "polyreactivity (PSR sort gate)": "high polyreactivity"}
{"Record sequence": "QVQLVESGGGLVQAGGSLRLTCAASGRTFYWNVMGWYRQAPGKERELVAITTSGGSTYYADAVKGRFTISRDNAKNTVYLQMNSLKPEDTAVYYCAAQWRSYYDQYGYDYWGQGTQVTVSS", "polyreactivity (PSR sort gate)": "low polyreactivity"}

Switching to the query record.
Q) Look at this sequence and give its reported polyreactivity (PSR sort gate). QVQLVESGGGLVQAGGSLRLSCAASGNTFYWNAMGWYRQAAGKERELVAAISTTGVSTYYADSVKGRFTISRDNAKNTVYLQMNSLKPEDTAVYYCATVSYYDRYDYDYWGQGTQVTVSS
A) low polyreactivity
